- study_target: UniProt P09211
- Sequence (P09211 whole entry): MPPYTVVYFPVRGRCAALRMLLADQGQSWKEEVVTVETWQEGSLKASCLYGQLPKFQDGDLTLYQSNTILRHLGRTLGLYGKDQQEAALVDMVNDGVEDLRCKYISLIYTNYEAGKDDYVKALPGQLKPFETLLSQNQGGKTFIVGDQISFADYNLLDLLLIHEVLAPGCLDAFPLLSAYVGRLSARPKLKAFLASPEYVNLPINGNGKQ
- assay: Inhibitory activity was measured on recombinant human Glutathione S-transferase P
Numbered stars: 1 amine (or outer) side, 2 acyl side, 3 side chain; on linkers, the order of the positions; unused ones are H or OH. Square brackets hold non-standard residues; d marks the D form. Peptide text beside a SMILES is read from it. * marks the point of attachment. γGlu = O=C(O)[CH](CCC(=O)[*:2])N[*:1]; Phg = N[CH](C(=O)O)c1ccccc1; Bn = c1ccc(C*)cc1
test_readout: Ki (µM)

| compound | endpoint_value |
| --- | --- |
| NC(CCC(=O)NC(CSCc1ccccc1)C(=O)NC(C(=O)O)c1ccccc1)C(=O)O (stereo unspecified) (γGlu-Cys(Bn)-[Phg]-OH; configuration not given here) | 0.42 |
| CCCCCCSCC(NC(=O)CCC(N)C(=O)O)C(=O)NC(C(=O)O)c1ccccc1 (stereo unspecified) | 0.85 |
| NC(CCC(=O)NC(CSCc1ccc(Cl)cc1)C(=O)NC(C(=O)O)c1ccccc1)C(=O)O (stereo unspecified) | 0.12 |

[A] CCCCCCSCC(NC(=O)CCC(N)C(=O)O)C(=O)NCCC(=O)O (stereo unspecified)
[B] Cc1ccc(CSCC(NC(=O)CCC(N)C(=O)O)C(=O)NCCC(=O)O)cc1 (stereo unspecified)
Between A and B , which one has the lower reported Ki value? Which one? Tell me its label.
B

* * *

- study_target: UniProt:P09488
- Sequence (P09488 whole entry): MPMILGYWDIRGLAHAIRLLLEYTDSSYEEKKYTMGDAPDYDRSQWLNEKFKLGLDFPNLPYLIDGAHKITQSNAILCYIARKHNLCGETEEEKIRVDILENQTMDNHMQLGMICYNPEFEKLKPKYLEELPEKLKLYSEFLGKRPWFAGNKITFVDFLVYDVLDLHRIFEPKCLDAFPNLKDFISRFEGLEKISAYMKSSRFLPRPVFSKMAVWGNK
- assay: Inhibitory activity was measured on recombinant human Glutathione S-transferase Mu 1
pKi: −log10 of the molar value. Numbered stars: 1 amine (or outer) side, 2 acyl side, 3 side chain; on linkers, the order of the positions; unused ones are H or OH. Square brackets hold non-standard residues; d marks the D form. Peptide text beside a SMILES is read from it. * marks the point of attachment. γGlu = O=C(O)[CH](CCC(=O)[*:2])N[*:1]; Phg = N[CH](C(=O)O)c1ccccc1; Bn = c1ccc(C*)cc1
test_readout: pKi

Sample answers from the record:
| compound | pKi |
| --- | --- |
| NC(CCC(=O)NC(CSCc1ccccc1)C(=O)NC(C(=O)O)c1ccccc1)C(=O)O (stereo unspecified) (γGlu-Cys(Bn)-[Phg]-OH; configuration not given here) | 4.24 |
| Cc1ccc(CSCC(NC(=O)CCC(N)C(=O)O)C(=O)NCCC(=O)O)cc1 (stereo unspecified) | 5.68 |

[I] CCCCCCSCC(NC(=O)CCC(N)C(=O)O)C(=O)NCCC(=O)O (stereo unspecified)
[II] CCCCCCSCC(NC(=O)CCC(N)C(=O)O)C(=O)NCC(=O)O (stereo unspecified)
[III] NC(CCC(=O)NC(CSCc1ccccc1)C(=O)NCCC(=O)O)C(=O)O (stereo unspecified)
[IV] CCCCCCSCC(NC(=O)CCC(N)C(=O)O)C(=O)NC(C(=O)O)c1ccccc1 (stereo unspecified)
Rank entries according to their pKi, from the largest number down. Return the labels ranked in the requested order, please.
II, I, III, IV
(II: 5.70, I: 4.96, III: 4.66, IV: 4.39)
